molecular target: Protein RecA (Mycobacterium tuberculosis); assay: Fluorescence Cell-Free Homogeneous Dose Retest to Identify Inhibitors of RecA-Intein Splicing Activity. [Related pubchem assays (depositor defined):AID2097, AID2223, AID489010, AID492950]; assay type: functional
The source made the active and inactive calls.
Possible outcomes: active, inactive

CCSC1(SCC)N=C(N)C2(C#N)C(c3ccc(F)cc3)C12C#N (stereo not given)
active
CC(CCc1ccccc1)NC(=O)COC(=O)c1ccc(S(C)(=O)=O)c([N+](=O)[O-])c1 (stereo not given)
active
Cc1noc(C)c1COC(=O)Cc1ccc(Br)cc1
inactive
O=c1oc2cc(Oc3c([N+](=O)[O-])cc(C(F)(F)F)cc3[N+](=O)[O-])ccc2c2c1CCCC2
active
CSc1nc(-c2ccccc2)nn1C(=O)c1ccc(Cl)cc1
active

* * *

biological target: Corticotropin-releasing factor receptor 2/Corticotropin-releasing factor-binding protein (Homo sapiens, UniProt P24387+Q13324); assay: Dose Response confirmation of uHTS hits for small molecule antagonists of the CRF-binding protein and CRF-R2 receptor complex.; assay type: functional; details: read-out: IC50_Mean
Sequence (Q13324 whole entry): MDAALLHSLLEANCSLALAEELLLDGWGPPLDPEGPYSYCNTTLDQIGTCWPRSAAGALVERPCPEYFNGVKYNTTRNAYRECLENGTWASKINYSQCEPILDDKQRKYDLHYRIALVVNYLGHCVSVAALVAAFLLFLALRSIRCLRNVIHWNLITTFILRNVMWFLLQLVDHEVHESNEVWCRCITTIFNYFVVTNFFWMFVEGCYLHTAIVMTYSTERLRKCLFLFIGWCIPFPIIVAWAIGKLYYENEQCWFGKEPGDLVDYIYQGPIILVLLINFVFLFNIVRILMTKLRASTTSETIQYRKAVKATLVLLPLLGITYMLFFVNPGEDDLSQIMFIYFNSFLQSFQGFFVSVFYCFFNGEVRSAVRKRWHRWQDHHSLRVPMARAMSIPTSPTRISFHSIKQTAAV
Sequence (P24387 whole entry): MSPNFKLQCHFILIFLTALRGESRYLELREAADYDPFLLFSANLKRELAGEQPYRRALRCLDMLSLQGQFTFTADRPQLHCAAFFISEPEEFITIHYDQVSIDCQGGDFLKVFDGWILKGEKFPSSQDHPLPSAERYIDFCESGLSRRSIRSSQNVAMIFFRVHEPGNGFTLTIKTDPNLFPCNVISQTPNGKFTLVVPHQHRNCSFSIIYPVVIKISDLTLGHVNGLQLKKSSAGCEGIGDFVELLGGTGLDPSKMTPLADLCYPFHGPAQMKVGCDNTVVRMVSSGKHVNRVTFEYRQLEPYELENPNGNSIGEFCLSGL
The source made the active and inactive calls.
Labels: Yes (active), No (inactive)

CC(=O)c1ccc(N2CCN(C(=O)CCS(=O)(=O)c3ccc4c(c3)CCN4C(C)=O)CC2)cc1
No
C#CCNC(=O)C1=C[C@H](c2ccc3c(c2)OCO3)[C@@H](CCCO)[C@H](OCC)O1
No
Cc1cc2c(NS(=O)(=O)c3ccc(F)cc3)cccc2nn1
No
O=C(Nc1ccccc1)c1nc[nH]c1C(=O)NCCN(CCNC(=O)c1[nH]cnc1C(=O)Nc1ccccc1)CCNC(=O)c1[nH]cnc1C(=O)Nc1ccccc1
No
COc1ccccc1C(=O)NC(CCSC)C(=O)NC1CCCCCC1 (centres undefined)
No
COc1ccccc1CCNC(=O)CCn1nc(C)c2c(C)n(-c3ccccc3)nc2c1=O
Yes
CSc1nc(C)c(C(=O)C[n+]2ccccc2C)cc1C#N
Yes
Cc1ccc2nc(N3C(=O)C(O)=C(C(=O)c4ccc(C)o4)C3c3cccc(O)c3)sc2c1 (centres undefined)
Yes
Cn1c(SCC(=O)c2ccc3c(c2)OCCO3)nnc1C(F)(F)F
No
CCOc1ccc(C(=O)NNC(=O)CCNC(=O)c2ccco2)cc1OC
No
Nc1nnc(SCc2cc3c(cc2Cl)OCO3)s1
Yes
Cc1cc([N+](=O)[O-])ccc1NC1CCCC1
Yes
O=c1ccc2cc(S(=O)(=O)NCc3ccccc3)ccc2[nH]1
No
CCOC(=O)Cc1csc(NC(=S)NC(=O)c2ccc([N+](=O)[O-])cc2)n1
Yes

* * *

Reported values of EC50 for individual entries
assay: Luminescence Cell-Based Dose Response HTS to Identify Inhibitors of 5'UTR Stem-Loop Driven Prion Protein mRNA Translation in H4 Neuroglioblastoma Cells. [Related pubchem assays: 1827 (Project Summary), 1813 (Primary HTS)]; type: functional
Calls of active or inactive are those of the source.
recorded-endpoint: EC50

COc1ccc(NC(=O)C(=O)NCC(c2ccco2)N2CCc3ccccc32)cc1 (stereo not given)
0.127 µM (active)
OCC/N=C1\CCCc2c1[nH]c1ccc(Br)cc21
48.8 µM (active)
Cc1cccc(OC2CCN(Cc3nc(CC4CC4)no3)CC2)c1
> 120 µM (not active)
COc1cccc(/C=N/Nc2nc3ccccc3n3cnnc23)c1
> 120 µM (not active)
CCOc1ccc2c(c1)C(C)=CC(C)(C)N2S(=O)(=O)c1ccc(NC(C)=O)cc1
0.162 µM (active)

* * *

molecular target: Nonstructural protein 1 (Influenza A virus); format: functional, Influenza A virus (A/California/07/2009(H1N1))
Sequence (Q194T2 whole entry): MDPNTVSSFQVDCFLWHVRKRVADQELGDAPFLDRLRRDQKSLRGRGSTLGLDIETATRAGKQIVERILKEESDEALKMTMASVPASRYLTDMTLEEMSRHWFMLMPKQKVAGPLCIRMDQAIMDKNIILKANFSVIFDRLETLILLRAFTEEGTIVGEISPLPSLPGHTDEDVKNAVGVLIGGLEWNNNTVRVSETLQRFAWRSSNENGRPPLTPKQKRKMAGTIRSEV
Active and inactive are the calls of the source.
recorded-endpoint: IC50

CCC(/C=C1\Sc2ccc(OC)cc2N1CCO)=C\c1sc2ccc(OC)cc2[n+]1CCO
5.11 µM (active)
O=C(C[n+]1ccccc1)NN=Cc1cc(Br)ccc1O
2.96 µM (active)
CCOc1ccc2c(ccc(/C=C/c3cc(C)c4cccnc4c3O)[n+]2C)c1
0.676 µM (active)
O=C(COc1cc(F)ccc1[N+](=O)[O-])Nc1ccc(N2CCCCC2)cc1
21.3 µM (active)
CCSC1=NC(=O)/C(=C2/C=Cc3ccccc3N2CC)S1
9.25 µM (active)
CNc1nc(-c2ccccn2)nnc1-c1ccccc1
1.66 µM (active)
CCCCCc1cc(=O)oc2c(C(CCN3CCCC(C)C3)c3ccc(N(C)C)cc3)c(OC)cc(OC)c12 (configuration not stated)
5.48 µM (active)

* * *

Each entry below carries its reported IC50.
target: Genome polyprotein (dengue virus type 2, UniProt P29990); assay: Dengue-2 NS5 methyltransferase inhibitors, primary screen, biochemical, confirmation dose response (AID 588689); format: functional
Calls of active or inactive are those of the source.
recorded-endpoint: IC50

COc1ccc(C(c2c(C)[nH]n(-c3ccccc3)c2=O)c2c(C)[nH]n(-c3ccccc3)c2=O)cc1OC
35.9 µM (active)
O=C(O)c1ccc(Cl)c(S(=O)(=O)Nc2ccccc2C(=O)Nc2ccc(Cl)cc2)c1
34 µM (active)
CCCOC(=O)c1c(-c2ccc(C)cc2C)csc1NC(=O)C1C2CCC(O2)C1C(=O)O (stereo unspecified)
55 µM (active)
CCCC(C(=O)O)N1C(=O)/C(=C2\C(=O)N(C)c3ccccc32)SC1=S (stereo unspecified)
30.4 µM (active)
COC(=O)c1ccc(N2NC(=O)/C(=C/c3cc(OC)c(OC)c(OC)c3)C2=O)cc1
46.6 µM (active)
COc1cc(/C=C2/C(=O)NN(c3cccc(C)c3)C2=O)ccc1OC(=O)c1ccco1
64 µM (active)

* * *

assay: Luminescence Cell-Based Dose Confirmation HTS to Identify Activators of 5'UTR Stem-Loop Driven Alpha-Synuclein mRNA Translation in H4 Neuroglioblastoma Cells. [Related pubchem assays: 1829 (Project Summary), 1814 (Primary HTS)]; assay type: functional
The source made the active and inactive calls.
Quick reference: EC50 of the listed items.
recorded-endpoint: EC50

c1coc(CSc2ncnc3c2oc2ccccc23)c1
3.52 µM (active)
Cc1cc(C)c(C#N)c(SCc2nc3ccccc3[nH]2)n1
0.262 µM (active)
CCCC1c2ccc(C)n2CCN1C(=O)Nc1ccccc1Cl (configuration not stated)
23 µM (active)
CCCCCOc1ccc(CN2CCOCC2)cc1Cl
< 0.1 µM (active)
O=C(CC1SC(N2CCCC2)=NC1=O)Nc1ccc(C(=O)Nc2ncccc2O)cc1 (configuration not stated)
16.5 µM (active)
O=S(=O)([N-]c1nc2ccccc2nc1-[n+]1ccc(-c2ccncc2)cc1)c1ccccc1
55 µM (active)
c1ccc(-c2noc(C34CC5CC(CC(C5)C3)C4)n2)nc1
0.122 µM (active)

* * *

assay: Luminescence Cell-Based Dose Confirmation HTS to Identify Inhibitors of Platelet Dense Granule Release. [Related pubchem assays: 1663 (Primary HTS), 1678 (Summary of Project)]; type: functional
The source made the active and inactive calls.
This listing pairs compounds with measured EC50.
recorded-endpoint: EC50

O=C(NCC1CCCO1)c1ccc(NC(=O)c2cccc(Cl)c2)cc1 (centres undefined)
> 112 µM (not active)
CCOC(=O)C1=C(C)N(c2ccc(C)cc2)C(=O)/C1=C\c1ccc(O)c(OC)c1
> 112 µM (not active)
CC(=O)NC(CCS(C)(=O)=O)C(=O)Nc1cc(C)on1 (centres undefined)
> 112 µM (not active)
COc1ccc(C(=O)Nc2ccc(N3CCCC3)cc2)cc1OC
1.03 µM (active)

* * *

biological target: Short transient receptor potential channel 4 (Mus musculus, UniProt Q9QUQ5); experiment: mouse TRPC4 channel inhibitors, dose response, cell-based, HEK293 TRPC4/mu-opioid, Fluo-4 calcium (AID 434942); assay type: functional;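 note: potency of inhibitors blocking the TRPC4 calcium response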
Sequence (Q9QUQ5 whole entry): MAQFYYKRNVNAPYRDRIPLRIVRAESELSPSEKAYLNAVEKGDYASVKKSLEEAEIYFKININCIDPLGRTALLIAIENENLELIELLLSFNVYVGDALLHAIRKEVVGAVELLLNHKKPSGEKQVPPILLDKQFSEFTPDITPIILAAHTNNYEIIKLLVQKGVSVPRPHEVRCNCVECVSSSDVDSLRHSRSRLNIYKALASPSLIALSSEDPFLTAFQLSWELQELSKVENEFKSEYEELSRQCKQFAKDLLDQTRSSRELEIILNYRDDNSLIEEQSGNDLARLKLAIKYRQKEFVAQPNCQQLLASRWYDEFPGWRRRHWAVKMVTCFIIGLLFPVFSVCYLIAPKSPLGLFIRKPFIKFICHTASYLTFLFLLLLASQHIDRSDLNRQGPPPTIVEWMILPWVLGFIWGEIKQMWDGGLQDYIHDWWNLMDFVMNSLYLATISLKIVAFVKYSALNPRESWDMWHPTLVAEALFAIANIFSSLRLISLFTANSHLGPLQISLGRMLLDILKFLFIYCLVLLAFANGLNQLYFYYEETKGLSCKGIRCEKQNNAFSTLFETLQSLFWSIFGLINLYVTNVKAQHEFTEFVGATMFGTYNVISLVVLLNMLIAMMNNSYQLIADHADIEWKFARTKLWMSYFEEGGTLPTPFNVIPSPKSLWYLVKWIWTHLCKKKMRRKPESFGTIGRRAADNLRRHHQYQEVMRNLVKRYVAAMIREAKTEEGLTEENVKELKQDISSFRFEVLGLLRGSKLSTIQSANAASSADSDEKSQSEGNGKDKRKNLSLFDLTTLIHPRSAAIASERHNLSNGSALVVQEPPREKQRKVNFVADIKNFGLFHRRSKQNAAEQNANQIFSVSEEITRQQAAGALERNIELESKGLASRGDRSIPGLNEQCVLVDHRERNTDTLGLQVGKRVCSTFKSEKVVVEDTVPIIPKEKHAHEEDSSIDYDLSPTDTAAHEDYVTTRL
The source made the active and inactive calls.
Each entry below carries its recorded EC50.
recorded-endpoint: EC50

COc1cc(/C=C2\SC(N3CCC(C)CC3)=NC2=O)ccc1O
3.35 µM (active)
CC1CCN(C(C)C(=O)Nc2ccccc2-c2ccccc2)CC1 (stereo not given)
5.31 µM (active)
c1ccc(CNc2c3ccccc3nc3ccccc23)cc1
1.33 µM (active)
O=C(Nc1ccccc1N1CCN(C(=O)c2ccc(Cl)cc2)CC1)c1cccc([N+](=O)[O-])c1
0.376 µM (active)
CC(C)Cc1cc(CN2CCCC(CO)(Cc3cccc(Cl)c3)C2)[nH]n1 (stereo not given)
2.11 µM (active)
CCCc1nc(SC2CCCC2)c2c(=O)n(C)c(=O)n(C)c2n1
4.73 µM (active)
CC(C)(C)Cc1nc2ccccc2n1CCc1ccccc1
1.06 µM (active)
Cc1ccc(C(=O)C2=C(O)C(=O)N(Cc3cccnc3)C2c2ccc(Cl)c(Cl)c2)o1 (stereo not given)
6.68 µM (active)
C/C=C(\C)CN1CCC(n2nccc2NC(=O)CCc2ccccc2)CC1
0.299 µM (active)
CCn1nc(C)c(CN2CCCC(CO)(Cc3cccc(Cl)c3)C2)c1C (stereo not given)
1.06 µM (active)
